The entries below are paired with their reported Selectivity Index.
biological target: acetylcholinesterase (AChE) (Homo sapiens); format: biochemical
Sequence (P22303 32-614, species assumed): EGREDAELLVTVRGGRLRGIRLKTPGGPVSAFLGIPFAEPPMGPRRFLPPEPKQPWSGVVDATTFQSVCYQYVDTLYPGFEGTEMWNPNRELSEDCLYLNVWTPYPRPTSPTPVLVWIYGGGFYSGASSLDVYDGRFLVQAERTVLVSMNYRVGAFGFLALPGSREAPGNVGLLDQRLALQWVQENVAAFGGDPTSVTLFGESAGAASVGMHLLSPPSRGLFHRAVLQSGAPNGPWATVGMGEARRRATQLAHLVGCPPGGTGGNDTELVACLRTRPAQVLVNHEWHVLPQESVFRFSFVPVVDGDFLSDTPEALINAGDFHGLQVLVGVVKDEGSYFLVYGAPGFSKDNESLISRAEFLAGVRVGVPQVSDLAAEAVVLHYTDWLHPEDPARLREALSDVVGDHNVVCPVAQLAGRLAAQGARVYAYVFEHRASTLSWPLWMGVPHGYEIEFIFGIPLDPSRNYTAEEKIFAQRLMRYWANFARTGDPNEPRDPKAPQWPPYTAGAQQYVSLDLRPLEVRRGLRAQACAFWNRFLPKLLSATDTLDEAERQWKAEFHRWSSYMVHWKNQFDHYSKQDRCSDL

{"Molecule": "COc1cccc(/C(CSc2nnc(-c3ccc([N+](=O)[O-])cc3)[nH]2)=N\\NC(=S)Nc2ccc(C)cc2[N+](=O)[O-])c1 [6t]", "Selectivity Index": 1.32}
{"Molecule": "O=[N+]([O-])c1ccc(NC(=S)N/N=C(/CSc2nnc(-c3ccc([N+](=O)[O-])cc3)[nH]2)c2ccc(Cl)c(Cl)c2)cc1 [6n]", "Selectivity Index": 2.43}
{"Molecule": "O=[N+]([O-])c1ccc(-c2nnc(SC/C(=N/NC(=S)Nc3cccc([N+](=O)[O-])c3)c3ccc(-c4ccccc4)cc3)[nH]2)cc1 [6e]", "Selectivity Index": 1.34}
{"Molecule": "Cc1ccc(NC(=S)N/N=C(/CSc2nnc(-c3ccc([N+](=O)[O-])cc3)[nH]2)c2ccc(Br)cc2)c([N+](=O)[O-])c1 [6h]", "Selectivity Index": 1.23}
{"Molecule": "COc1ccc(OC)c(/C(CSc2nnc(-c3ccc([N+](=O)[O-])cc3)[nH]2)=N\\NC(=S)Nc2ccc(C)cc2[N+](=O)[O-])c1 [6f]", "Selectivity Index": 1.96}
{"Molecule": "Cc1ccc(-c2ccc(NC(=S)N/N=C(/CSc3nnc(-c4ccc([N+](=O)[O-])cc4)[nH]3)c3ccc(Br)cc3)cc2)cc1 [6k]", "Selectivity Index": 1.15}
{"Molecule": "O=[N+]([O-])c1ccc(-c2nnc(SC/C(=N/NC(=S)Nc3cc(Cl)c(Cl)cc3[N+](=O)[O-])c3ccccc3Br)[nH]2)cc1 [6a]", "Selectivity Index": 1.77}
{"Molecule": "O=[N+]([O-])c1ccc(NC(=S)N/N=C(/CSc2nnc(-c3ccc([N+](=O)[O-])cc3)[nH]2)c2ccccc2[N+](=O)[O-])cc1 [6s]", "Selectivity Index": 1.64}
{"Molecule": "CN(C)c1cc(Cl)c(NC(=S)N/N=C(/CSc2nnc(-c3ccc([N+](=O)[O-])cc3)[nH]2)c2ccc(-c3ccccc3)cc2)cc1Cl [6j]", "Selectivity Index": 1.09}
{"Molecule": "COc1cccc(/C(CSc2nnc(-c3ccc([N+](=O)[O-])cc3)[nH]2)=N\\NC(=S)Nc2ccc([N+](=O)[O-])cc2)c1 [6u]", "Selectivity Index": 1.28}
